Reference source for all entries: PubChem BioAssay (NCI)

A collection of compounds and their measured TGI
Tested on: SN12C renal
TEST DESCRIPTION: NCI tumour cell line growth inhibition, 48 h

Previously resolved entries follow.
TGI in this record for COc1cccc2c(Nc3ccc(S(=O)(=O)NC(C)=O)cc3)c3ccc([N+](=O)[O-])cc3nc12 : > 100 µM

The compound listed as C=C1CC(C)(COc2ccc3ccc(=O)oc3c2)OC1=O (stereo not drawn) shows TGI equal to 25 µM

Record COC(=O)c1c2c(c(C)[n+]([O-])c1C)C(=O)C=C(NCc1ccc(OC)cc1)C2=O , field TGI: 4.3 µM

// TGI value for CC1=NN(c2nc(N)nc(CSCc3nc(N)nc(N(C)C)n3)n2)C(C)(C)C1 : > 100 µM

// TGI value for Nc1ccc2c3c(n(CCCCl)c(=O)c2c1)-c1cc2c(cc1C3=O)OCO2 : > 100 µM

compound CC1(C)CC(n2cnc(-c3ccc(F)cc3)c2-c2ccnc(N)n2)CC(C)(C)N1 , TGI observed: > 25 µM

Just so you know, measured TGI for COc1cc(NCc2ccc3nc(OC)c(OC)nc3c2)cc(OC)c1OC came out at > 100 µM

Pending compound:
Measured TGI of CC/C(=C(/CC)c1ccc(O)cc1)c1ccc([O-])cc1.CC/C(=C(/CC)c1ccc(O)cc1)c1ccc([O-])cc1.O=C([CH-]C(=O)c1ccccc1)c1ccccc1.O=C([CH-]C(=O)c1ccccc1)c1ccccc1.[Ti+4] : 26.9 µM

---

System: SF-268 CNS
TEST DESCRIPTION: NCI tumour cell line growth inhibition, 48 h
compounds and their reported TGI

// TGI lookup, compound = CCCCCCCCC/C=C1\CC(CO)(COC(=O)C2CCCCC2)OC1=O (stereo not given) , result: 46.7 µM

Next:
The compound identified as c1cc(OCCN2CCCCC2)ccc1CNc1ccc2nc(CCC3CCCCC3)[nH]c2c1 registered its TGI at 5.43 µM

The compound identified as NC(=S)N/N=C(\C(=O)Nc1cccc([N+](=O)[O-])c1)c1nc2ccc([N+](=O)[O-])cc2[nH]c1=O registered its TGI at > 100 µM

---

Each entry below carries its recorded TGI.
Test system: NCI-H522 lung
TEST DESCRIPTION: NCI tumour cell line growth inhibition, 48 h

Measured TGI, CCN(CC)C(=S)SNCc1ccc(S(N)(=O)=O)cc1 : 22.2 µM

Lab note: measured TGI of COC(=O)C(=O)C(C(=O)C(=O)Nc1ccccc1C(C)=O)c1nc2ccc(C(=O)c3ccccc3)cc2[nH]c1=O (stereo not drawn) was > 100 µM

GET /value?item= Cc1cc(C)nc(NS(=O)(=O)c2ccc(Nc3c4ccc(Cl)cc4nc4c(C(=O)Nc5ccc(S(=O)(=O)N=C(N)N)cc5)cccc34)cc2)n1 &field=TGI returns > 100 µM

Entry CSC1=N/C(=C\c2ccco2)C(=O)N1CN1CCCCC1 , TGI reported as > 100 µM

Entry CC(=O)NC1C(O)C(O)C(CO)OC1n1ncc(=O)[nH]c1=O (stereo not drawn) — recorded TGI = > 100 µM

For reference, reported TGI for CCOC(=O)[C@@H]1ON2O[C@H](OC3CCCC3(c3ccccc3)c3ccccc3)C[C@H]3OC(=O)[C@@H]1C32 (stereo partly drawn) stands at > 100 µM

---
Lab book: TGI of CCCN1CCN(c2ccc3nc(-c4ccc5nc(-c6cc(OC)ccc6OC)[nH]c5c4)[nH]c3c2)CC1 noted as 3.68 µM

Per the record, CCCN1CN(C(C(=O)N[C@@H]2C(=O)N3C(C(=O)O)=C(C)CSC23)c2ccc(O)cc2)CSC1=S (stereo partly drawn) has TGI of > 100 µM

---

Listing: TGI of selected molecules
Test system: HCT-116 colon
TEST DESCRIPTION: NCI tumour cell line growth inhibition, 48 h
# value in µM; strip the unit string

Solved cases (5 shown):
TGI reading for C=CCN1C=CC(=O)[C@H](O[Si](C)(C)C(C)(C)C)[C@@H]1/C=C/c1ccccc1 : 19.9

For reference, reported TGI for COc1cc(C2=C(C#N)C(N)OC3=C2COc2ccccc23)cc(OC)c1OC (stereo not given) stands at 43.5

The molecule O=C(C[n+]1ccccc1)N=N/C(C(=O)Nc1c(Cl)c(O)c2ccccc2c1O)=C1/C(=O)Oc2cc(O)ccc2C1=O showed TGI equal to 12.1

Consider COC1=C(N2CC2)C(=O)c2nc3n(c2C1=O)CCC3 . Its measured TGI is 1.93

Lab note: CCC[CH2][Sn]([CH2]CCC)([O]C(=O)C(N)CSC)[O]C(=O)C(N)CSC (stereo not given) gave TGI of 24.7

Let us examine a further case.
Note to self: TGI recorded for N#Cc1c(Cl)c2ccccc2n2c1nc1ccccc12 was 33.5

---

Measured GI50 values are reported for all entries that follow.
System: CCRF-CEM leukemia
TEST DESCRIPTION: NCI tumour cell line growth inhibition, 48 h

Worked cases, GI50 given:
The compound identified as CCC[CH2][Sn]([CH2]CCC)([O]C(=O)C(N)CSC)[O]C(=O)C(N)CSC (stereo not given) registered its GI50 at 1.73 µM

Reported GI50 for C[C@@H]1N=C(c2ccc(Br)cc2)Nc2nc3ccccn3c2C1=O was 6.56 µM

In plain terms, COc1ccc(-c2nc3ncccn3c2/C=C/C(=O)c2cc(OC)c(OC)c(OC)c2)cc1 has a documented GI50 of 4.01 µM

Entry CCN=c1cc2sc3cc(NCC)c(C)cc3nc-2cc1C , GI50 reported as 0.76 µM

Below: the item to evaluate.
Memo: CCOc1ccc(Nc2nc(-c3ccc4c(c3)NC(=O)CO4)cs2)cc1 , reported GI50: 6.28 µM

---

System: UO-31 renal
TEST DESCRIPTION: NCI tumour cell line growth inhibition, 48 h
OBSERVABLE: TGI

TGI recorded for this compound, O=C(Nc1ccc(F)cc1)C(=O)C(C1OC(=O)c2ccccc21)[N+](=O)[O-] (stereo unspecified) , is > 100 µM

Entry Cn1c(Nc2ccccc2)c(C=Nc2ccccc2)c(=O)n(C)c1=O — recorded TGI = > 100 µM

Measured TGI, O=C1NC2CCC(C2)C1c1ccccc1 (stereo unspecified) : > 100 µM

response.value for COC(=O)C1=Cc2cc(OC)c(O)cc2[C@@H](c2ccc(O)c(OC)c2)[C@@H]1C(=O)OC (field: TGI) = > 100 µM

The recorded TGI for CN(C)C(=O)Nc1cc2c3c(c1)CCCN3CCC2 is > 10 µM

Others:
// TGI value for C=CCC(C(=O)O)c1ccccc1 (stereo unspecified) : > 100 µM

compound CC(C)CNc1nc(-c2ccccc2)nc2ccccc12 , TGI observed: 50.5 µM

Entry C=CCN1C=CC(=O)[C@H](O[Si](C)(C)C(C)(C)C)[C@@H]1/C=C/c1ccccc1 , TGI reported as 25.1 µM

The compound C=C(C)CN(CC#N)CC(=C)C showed TGI equal to > 100 µM

In plain terms, O=C(Nc1cc[c]([Sb](=[O])([OH])[OH])cc1)c1ccccc1 has a documented TGI of > 100 µM

The value of TGI measured for the compound Cc1ccc(Nc2nc(N)nc3c2ncn3C2OC(CO)C(O)C2O)cc1 (stereo unspecified) turned out to be > 100 µM

For reference, reported TGI for CSc1nc(NC(=O)O)c(N(C(C)=O)C(=O)O)c(=O)n1C stands at > 100 µM

---

Tested on: HL-60(TB) leukemia
TEST DESCRIPTION: NCI tumour cell line growth inhibition, 48 h
Listing of entries alongside the reported TGI.
Write the number in µM without appending the unit.

Bench note, HL-60(TB) leukemia: O=C(C1C(c2ccccc2)N1C(c1ccccc1)c1ccccc1)C1C(c2ccccc2)N1C(c1ccccc1)c1ccccc1 (stereo not given) , TGI reads 12

// switching to the query molecule
Lab note: molecule N#Cc1c(Cl)c2ccccc2n2c1nc1ccccc12 tested on HL-60(TB) leukemia; recorded TGI was 31

---

Tested on: TK-10 renal
TEST DESCRIPTION: NCI tumour cell line growth inhibition, 48 h
TGI values for the compounds below.

Example cases with answers are listed next.
Form: item CCOC(=O)C(NC(=O)CC(C)C)(Nc1ccc(S(=O)(=O)Nc2nc(C)cc(C)n2)cc1)C(F)(F)F (stereo unspecified) ; test system TK-10 renal; TGI: > 100 µM

The compound C[C@@H]1N=C(c2ccc(Br)cc2)Nc2nc3ccccn3c2C1=O , when measured on TK-10 renal, yielded TGI of > 100 µM

Lab note: compound COc1ccc(C(c2c[nH]c3ccc(Br)cc23)c2c[nH]c3ccc(Br)cc23)cc1 tested on TK-10 renal; recorded TGI was 2.27 µM

Considering COC1OC(C)C(O)CC1OS(=O)(=O)c1ccc(C)cc1 (stereo unspecified) , its TGI with TK-10 renal was recorded as > 100 µM

Record for Cc1cccc(C)c1NC(=O)CCc1nnc2s/c(=C\c3ccc(Cl)cc3)c(=O)n12 under target or system TK-10 renal: TGI reported as > 100 µM

The compound CCC[CH2][Sn]([CH2]CCC)([O]C(=O)C(N)CSC)[O]C(=O)C(N)CSC (stereo unspecified) , tested on TK-10 renal, showed TGI of 21.5 µM

Tested on TK-10 renal: Cc1ccc(Nc2nc(N)nc3c2ncn3C2OC(CO)C(O)C2O)cc1 (stereo unspecified) . Observed TGI: > 100 µM

Sample Nc1ncn(C2C=C(CO)C(O)C2O)c(=O)n1 (stereo unspecified) , system: TK-10 renal. Its TGI is > 100 µM

Case COc1cccc2c(Nc3ccc(S(=O)(=O)NC(C)=O)cc3)c3ccc([N+](=O)[O-])cc3nc12 , TK-10 renal, TGI recorded as > 56.7 µM

Summary line: COc1ccc2c(c1)OC1=C(C(=O)OC1)C2c1cc(OC)c(OC)c(OC)c1 (stereo unspecified) , TK-10 renal, reported TGI = > 100 µM

---
Field TGI (TK-10 renal), entry O=C([CH-]C(=O)c1ccccc1)c1ccccc1.O=C([CH-]C(=O)c1ccccc1)c1ccccc1.O=C([CH-]C(=O)c1ccccc1)c1ccccc1.[OH3+].[Y+3] : 68.4 µM

The compound Cc1nc2cc(N)c(F)cc2[nH]1 on TK-10 renal: TGI was > 100 µM

Bench note, TK-10 renal: entry CC(=O)Nc1c(C)ccc2c1C(=O)c1ccccc1C2=O , its TGI = > 100 µM
